These measurements were taken from the supplement of paper PMC11451515.

# Tested on: SEM cells
# experimentSummary: cell viability relative to DMSO control; higher = less cytotoxic
# conditions: RPMI 5 mM glucose + 10% dialyzed FBS; 48 h; 0.0632 µM
measurementType: cell viability (%)

| smilesCode | measurementType | unitAbbrev | measurement |
| --- | --- | --- | --- |
| NC(=O)NO | cell viability | % | 96.2 |
| N#C/N=C(\NCCCCCCOc1ccc(Cl)cc1)Nc1ccncc1 | cell viability | % | 8.27 |
| CCOc1cc(CC(=O)N[C@@H](CC(C)C)c2ccccc2N2CCCCC2)ccc1C(=O)O | cell viability | % | 109 |
| N#C[C@H](O[C@@H]1O[C@H](CO[C@@H]2O[C@H](CO)[C@@H](O)[C@H](O)[C@H]2O)[C@@H](O)[C@H](O)[C@H]1O)c1ccccc1 | cell viability | % | 99 |
| CNC(=O)C1=CC=C(C)C(=C1)N2C(=C/C(=C(/Br)C2=O)OCC3=C(F)C=C(F)C=C3)\C | cell viability | % | 134 |
| CC(C)C[C@H](NC(=O)[C@@H](O)[C@H](N)Cc1ccccc1)C(=O)O | cell viability | % | 129 |
| CC(C)OC1=CC=C2C(=C1)O\C=C(/C2=O)C3=CC=CC=C3 | cell viability | % | 129 |
| Cc1onc(-c2ccccc2)c1C(=O)N[C@@H]1C(=O)N2[C@@H]1SC(C)(C)[C@@H]2C(=O)[O-].[Na+] | cell viability | % | 133 |
| COc1ccc2cc1Oc1ccc(cc1)C[C@H]1c3cc(c(OC)cc3CCN1C)Oc1c(OC)c(OC)cc3c1[C@H](C2)N(C)CC3 | cell viability | % | 107 |
